testedOn: T1, recombinant mouse VISTA (His-tagged) (mouse, UniProt Q9D659 33-191)
T1 construct: also called murine VISTA; mVISTA
T1 sequence (looked up): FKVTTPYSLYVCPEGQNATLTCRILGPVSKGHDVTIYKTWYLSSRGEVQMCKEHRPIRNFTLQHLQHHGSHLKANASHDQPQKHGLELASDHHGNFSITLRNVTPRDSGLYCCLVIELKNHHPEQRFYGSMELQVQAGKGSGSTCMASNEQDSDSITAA
runDescription: ELISA, plate coated with mouse VISTA; unit nM from the legend paragraph 699
measuredParameter: pEC50
One number for each entry, as −log10 of the molar value.

Illustrative cases are given below, each with its answer.
What value of pEC50 has been reported for the following binder? anti-VISTA clone V4-C24 IgG1 (antibody, V domains shown) VH: QVQLQESGPGLVKPSDTLSLTCTVSGYSITSDYTWNWIRQTPGKGLEWIGHITYSGSVSYNPSLRSRVTISRDTSKNQFSLKLSSVTAADTATYSCARALYYPWYFDVWGTGTTVTVSS VL: EIVLTQSPATLSLSPGERATLSCRASSSVGYIHWYQQKPGQAPRPLIYTTSYRATGIPARFSGSGSGTDNTLTISSLEPEDSAVYYCQQWSSYPPITFGGGTKLEVKR
9.94

Field entry: anti-VISTA clone V4-C27 IgG1 (antibody, V domains shown) VH: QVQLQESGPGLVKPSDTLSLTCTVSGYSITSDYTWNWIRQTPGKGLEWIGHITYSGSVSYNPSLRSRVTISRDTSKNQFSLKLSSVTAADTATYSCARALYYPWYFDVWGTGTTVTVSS VL: EIVLTQSPATLSLSPGERATLSCRASSSVGYIHWYQQKPGQAPRPLIYATYNRATGIPARFSGSGSGTDNTLTISSLEPEDSAVYYCQQWSSYPPITFGGGTKLEVKR
10.14

Would you kindly look at the next entry?
What value of pEC50 has been reported for the following binder? anti-VISTA clone V4-C1 IgG1 (antibody, V domains shown) VH: QVQLQESGPGLVKPSDTLSLTCTVSGYSITSDYAWNWIRQTPGKGLEWIGYITYSGYISYNPSLRSRVTISRDTSKNQFSLKLSSVTAADTAVYSCARALYYPWYFDVWGTGTTVTVSS VL: EIVITQSPATLSLSPGERATLSCRASSSVGYIHWYQQKPGQAPRPLIYATSNRATGIPARFSGSGSGTDNTLTISSLEPEDSAVYYCQQWSSYPPITFGGGTKLEVKR
8.61
